- assay target: Programmed cell death protein 1/Programmed cell death 1 ligand 1 (Homo sapiens, UniProt Q15116+Q9NZQ7)
- Sequence (Q15116 whole entry): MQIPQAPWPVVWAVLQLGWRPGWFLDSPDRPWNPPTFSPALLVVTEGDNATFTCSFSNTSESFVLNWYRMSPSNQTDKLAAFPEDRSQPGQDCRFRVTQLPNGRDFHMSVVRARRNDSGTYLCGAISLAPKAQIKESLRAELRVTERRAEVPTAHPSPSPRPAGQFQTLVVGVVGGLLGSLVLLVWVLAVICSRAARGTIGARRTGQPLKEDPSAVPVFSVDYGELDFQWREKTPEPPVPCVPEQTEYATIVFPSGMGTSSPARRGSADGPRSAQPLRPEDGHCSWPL
- Sequence (Q9NZQ7 whole entry): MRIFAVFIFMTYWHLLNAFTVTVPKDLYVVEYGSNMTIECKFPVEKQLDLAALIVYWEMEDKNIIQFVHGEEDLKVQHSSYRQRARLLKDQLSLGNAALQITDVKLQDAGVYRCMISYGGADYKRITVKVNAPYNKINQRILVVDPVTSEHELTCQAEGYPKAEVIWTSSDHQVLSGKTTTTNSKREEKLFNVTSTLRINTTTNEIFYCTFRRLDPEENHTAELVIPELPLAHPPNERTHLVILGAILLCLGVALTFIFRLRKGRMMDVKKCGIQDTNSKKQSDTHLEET
- assay: Inhibition of PD-1/PD-L1 interaction (unknown origin) incubated for 24 hrs by HTRF assay
reported metric: pIC50
Note: pIC50 values are expressed as the negative base-10 logarithm of concentration in M.

I am curious: what pIC50 value has been reported for COc1cc2c(cc1OC)N(CCCN1CCN(CCO)CC1)c1cc(Cl)ccc1S2 ?
5.04

----------
- assay target: Vascular endothelial growth factor receptor 2 (Homo sapiens, UniProt P35968)
- Sequence (P35968 whole entry): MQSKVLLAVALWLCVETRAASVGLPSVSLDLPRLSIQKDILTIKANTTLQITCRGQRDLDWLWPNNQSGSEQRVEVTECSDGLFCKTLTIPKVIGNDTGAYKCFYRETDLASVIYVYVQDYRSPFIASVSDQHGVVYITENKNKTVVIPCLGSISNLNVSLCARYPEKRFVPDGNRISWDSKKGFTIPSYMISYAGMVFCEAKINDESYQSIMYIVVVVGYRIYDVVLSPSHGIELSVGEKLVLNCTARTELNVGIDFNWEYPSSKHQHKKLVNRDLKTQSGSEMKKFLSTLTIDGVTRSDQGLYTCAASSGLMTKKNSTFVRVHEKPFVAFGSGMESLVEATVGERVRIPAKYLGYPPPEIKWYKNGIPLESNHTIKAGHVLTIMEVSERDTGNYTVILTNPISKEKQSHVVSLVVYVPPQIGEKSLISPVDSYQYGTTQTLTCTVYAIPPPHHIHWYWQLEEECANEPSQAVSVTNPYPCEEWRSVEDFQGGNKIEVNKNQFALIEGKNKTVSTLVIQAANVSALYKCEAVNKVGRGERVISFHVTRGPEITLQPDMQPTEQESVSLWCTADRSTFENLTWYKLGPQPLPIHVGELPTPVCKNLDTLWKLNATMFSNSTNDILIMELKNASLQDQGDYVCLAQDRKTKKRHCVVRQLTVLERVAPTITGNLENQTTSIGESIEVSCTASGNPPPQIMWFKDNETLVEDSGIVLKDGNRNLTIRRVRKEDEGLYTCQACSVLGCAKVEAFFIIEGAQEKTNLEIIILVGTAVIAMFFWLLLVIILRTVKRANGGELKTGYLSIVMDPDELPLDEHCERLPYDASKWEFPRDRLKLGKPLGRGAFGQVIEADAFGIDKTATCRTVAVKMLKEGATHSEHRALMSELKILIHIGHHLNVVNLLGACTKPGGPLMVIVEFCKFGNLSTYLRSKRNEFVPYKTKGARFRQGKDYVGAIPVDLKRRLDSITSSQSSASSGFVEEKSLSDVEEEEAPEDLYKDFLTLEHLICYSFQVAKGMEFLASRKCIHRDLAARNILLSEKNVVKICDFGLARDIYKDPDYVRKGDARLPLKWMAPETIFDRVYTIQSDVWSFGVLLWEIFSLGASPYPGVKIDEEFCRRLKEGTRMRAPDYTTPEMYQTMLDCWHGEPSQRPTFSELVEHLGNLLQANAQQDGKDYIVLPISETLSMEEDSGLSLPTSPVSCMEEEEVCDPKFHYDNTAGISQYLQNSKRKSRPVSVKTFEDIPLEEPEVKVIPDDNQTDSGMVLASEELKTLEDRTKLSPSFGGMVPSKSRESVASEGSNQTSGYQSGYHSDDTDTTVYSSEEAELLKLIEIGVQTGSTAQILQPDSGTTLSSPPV
reported metric: IC50

Find the measured IC50: item O=C(Nc1cc(C(F)(F)F)ccc1N1CCCCC1)c1ccncc1 , target or system Vascular endothelial growth factor receptor 2 (Homo sapiens, UniProt P35968).
960 nM
